Please go through the items and note down their ABTS % I (mean ± S.E.M).
# Procedure text: ABTS free radical scavenging
# Experimental context: concentration 125 μg/mL
Express your answer as a number followed by its unit.

### Prompt Item S=C(Nc1ccccc1)NC(c1ccccn1)C(Cc1ccccc1)Cc1ccccc1 (centres unmarked) [Compound III] : provide ABTS % I (mean ± S.E.M)
### Response 64.77 ±0.087%

### Prompt Item Fc1ccccc1NC(=S)Nc1ccccc1 [Compound V, 1-(2-fluorophenyl)-3-phenylthiourea] : provide ABTS % I (mean ± S.E.M)
### Response 69.45 ± 1.29%

### Prompt Item S=C(NC(c1ccccn1)C(Cc1ccccc1)Cc1ccccc1)NC(c1ccccn1)C(Cc1ccccc1)Cc1ccccc1 (centres unmarked) [Compound I] : provide ABTS % I (mean ± S.E.M)
### Response 77.55 ± 1.93%

### Prompt Item O=C1O[C@H]([C@@H](O)CO)C(O)=C1O [Ascorbic acid, reference compound] : provide ABTS % I (mean ± S.E.M)
### Response 55.30 ± 1.75%

### Prompt Item Cc1ccc(NC(=S)Nc2ccccc2)c(C)c1 [Compound IV, 1-(2,4-dimethylphenyl)-3-phenylthiourea] : provide ABTS % I (mean ± S.E.M)
### Response 64.81 ± 1.05%

----------
# Test system: Staphylococcus aureus
# Procedure text: Anti-bacterial activity, agar well diffusion
# Assay type: cell-based
# Experimental context: read-out: ZI (Zone of inhibition), Staphylococcus aureus
Property: zone of inhibition at 10 µg/mL
Express your answer as a number followed by its unit.

### Prompt Identify measured zone of inhibition at 10 µg/mL obtained with Staphylococcus aureus for S=C(NC(c1ccccn1)C(Cc1ccccc1)Cc1ccccc1)NC(c1ccccn1)C(Cc1ccccc1)Cc1ccccc1 (stereo not shown) .
### Response 13 mm

### Prompt Identify measured zone of inhibition at 10 µg/mL obtained with Staphylococcus aureus for S=C(Nc1ccccc1)NC(c1ccccn1)C(Cc1ccccc1)Cc1ccccc1 (stereo not shown) .
### Response 15 mm

### Prompt Identify measured zone of inhibition at 10 µg/mL obtained with Staphylococcus aureus for "Cc1ccc(NC(=S)Nc2ccccc2)c(C)c1" .
### Response 21 mm

### Prompt Identify measured zone of inhibition at 10 µg/mL obtained with Staphylococcus aureus for "Fc1ccccc1NC(=S)Nc1ccccc1" .
### Response 12 mm

----------
# System: Proteus vulgaris
# Procedure text: Anti-bacterial activity, agar well diffusion
# Type: cell-based
# Experimental context: read-out: ZI (Zone of inhibition), Proteus vulgaris
Property: zone of inhibition at 30 µg/mL

### Prompt Item S=C(NC(c1ccccn1)C(Cc1ccccc1)Cc1ccccc1)NC(c1ccccn1)C(Cc1ccccc1)Cc1ccccc1 (stereo not shown) [Compound I] : provide zone of inhibition at 30 µg/mL
### Response 24 mm

### Prompt Item Fc1ccccc1NC(=S)Nc1ccccc1 [Compound V, 1-(2-fluorophenyl)-3-phenylthiourea] : provide zone of inhibition at 30 µg/mL
### Response 24 mm

### Prompt Item Cc1ccc(NC(=S)Nc2ccccc2)c(C)c1 [Compound IV, 1-(2,4-dimethylphenyl)-3-phenylthiourea] : provide zone of inhibition at 30 µg/mL
### Response 23 mm

### Prompt Item S=C(Nc1ccccc1)NC(c1ccccn1)C(Cc1ccccc1)Cc1ccccc1 (stereo not shown) [Compound III] : provide zone of inhibition at 30 µg/mL
### Response 22 mm

----------
Please go through the items and note down their inhibition at 250 µg/mL.
# Test target: Butyrylcholinesterase (Homo sapiens, UniProt P06276)
# Sequence (P06276 29-602): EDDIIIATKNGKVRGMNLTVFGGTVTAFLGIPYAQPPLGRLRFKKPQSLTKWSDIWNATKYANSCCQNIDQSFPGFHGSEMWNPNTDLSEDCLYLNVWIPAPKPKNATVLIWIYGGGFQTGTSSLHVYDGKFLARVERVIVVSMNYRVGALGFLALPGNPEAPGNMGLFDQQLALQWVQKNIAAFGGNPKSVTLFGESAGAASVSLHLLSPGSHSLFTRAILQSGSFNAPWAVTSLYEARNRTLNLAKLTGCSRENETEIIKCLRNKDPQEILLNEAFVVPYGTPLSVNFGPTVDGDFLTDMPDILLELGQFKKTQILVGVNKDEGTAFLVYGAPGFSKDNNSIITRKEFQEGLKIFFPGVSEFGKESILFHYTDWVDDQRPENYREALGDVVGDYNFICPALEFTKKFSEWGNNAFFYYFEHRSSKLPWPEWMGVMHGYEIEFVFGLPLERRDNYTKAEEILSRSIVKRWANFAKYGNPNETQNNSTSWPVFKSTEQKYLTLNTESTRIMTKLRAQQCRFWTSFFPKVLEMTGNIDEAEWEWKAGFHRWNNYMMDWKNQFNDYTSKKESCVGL
# Procedure text: Anticholinesterase assay
# Format: biochemical
# Experimental context: read-out: %BChE Inhibition (mean ± SEM)
Provide the reading as a plain figure in %.

### Prompt Item "Cc1ccc(NC(=S)Nc2ccccc2)c(C)c1" : provide inhibition at 250 µg/mL
### Response 53.5

### Prompt Item "Fc1ccccc1NC(=S)Nc1ccccc1" : provide inhibition at 250 µg/mL
### Response 55.1

### Prompt Item S=C(Nc1ccccc1)NC(c1ccccn1)C(Cc1ccccc1)Cc1ccccc1 (stereo not drawn) : provide inhibition at 250 µg/mL
### Response 61.8
